- System: Tetrahymena pyriformis
- protocol.description: In vitro minimum inhibition concentration to inhibit the regeneration of cilia in Tetrahymena pyriformis W.
- Type: functional
- condition.set: Tetrahymena pyriformis; read-out: MIC
Give measured MIC for each item. Keep answers brief.

These recorded examples may help you get a feel for the data.
COc1cc(CC2COCC2Cc2ccc3c(c2)OCO3)cc(OC)c1OC (stereo in doubt; (-)) [CISBURSERAN]; > 20 µg/mL
COc1cc2cc(c1Cl)N(C)C(=O)C[C@H](OC(=O)C(C)C)[C@]1(C)O[C@H]1[C@H](C)[C@@H]1C[C@@](O)(NC(=O)O1)[C@H](OC)/C=C/C=C(\C)C2; < 0.5 µg/mL
COc1cc2c(c(OC)c1OC)-c1cc3c(cc1C(OC(C)=O)[C@H]1COC(=O)[C@@H]1C2)OCO3 (mixture of isomers); > 20 µg/mL
COc1cc(C2c3cc4c(cc3CC3COC(=O)[C@@H]32)OCO4)cc(OC)c1OC (stereo in doubt); > 20 µg/mL
COc1cc([C@@H]2c3cc4c(cc3[C@H](O)[C@H]3COC(=O)[C@H]23)OCO4)cc(OC)c1OC; > 20 µg/mL

Value lookup for MIC; key = COc1cc2c(c(OC)c1OC)-c1cc3c(cc1C[C@H]1COC(=O)[C@H]1C2)OCO3 (stereo in doubt; (+))
> 20 µg/mL
